# tested on: wild-type un-phosphorylated FGFR4 (Homo sapiens, UniProt P22455)
# Sequence (P22455 22-802): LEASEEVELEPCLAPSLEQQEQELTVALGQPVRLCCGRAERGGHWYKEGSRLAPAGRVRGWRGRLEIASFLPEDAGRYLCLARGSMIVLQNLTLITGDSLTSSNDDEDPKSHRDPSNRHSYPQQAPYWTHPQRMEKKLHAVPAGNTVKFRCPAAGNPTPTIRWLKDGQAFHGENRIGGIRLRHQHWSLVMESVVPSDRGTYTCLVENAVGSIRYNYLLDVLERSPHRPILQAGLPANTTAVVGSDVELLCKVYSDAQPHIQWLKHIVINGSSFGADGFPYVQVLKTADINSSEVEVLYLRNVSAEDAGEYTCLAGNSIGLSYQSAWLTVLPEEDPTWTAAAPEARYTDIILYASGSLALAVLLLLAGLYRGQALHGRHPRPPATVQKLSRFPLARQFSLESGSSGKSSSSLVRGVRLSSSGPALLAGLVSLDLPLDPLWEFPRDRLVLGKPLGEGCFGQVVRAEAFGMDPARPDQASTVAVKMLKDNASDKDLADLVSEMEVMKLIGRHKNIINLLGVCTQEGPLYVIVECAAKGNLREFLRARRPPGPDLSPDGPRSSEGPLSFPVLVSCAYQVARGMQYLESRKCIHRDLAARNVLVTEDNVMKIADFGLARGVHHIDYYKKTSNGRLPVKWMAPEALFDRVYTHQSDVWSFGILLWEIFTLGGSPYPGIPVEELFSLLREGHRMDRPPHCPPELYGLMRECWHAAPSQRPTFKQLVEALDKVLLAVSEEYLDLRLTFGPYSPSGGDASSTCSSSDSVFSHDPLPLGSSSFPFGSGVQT
# method: FGFR Enzymatic Assay (FRET peptide phosphorylation), FGFR4
Please respond with reported IC50 for every item in the list.

[[record]]
smiles_text = "COc1cc2[nH]nc(-c3ccc(N4CCCC4)nc3)c2nc1-c1cccc2c1CCC2"
result = "> 100 nM"

[[record]]
smiles_text = "COc1cc2[nH]nc(-c3cnn(C4CN(S(=O)(=O)CCO)C4)c3)c2nc1-c1cccc2c1CCC2"
result = "40 to 100 nM"


Parameters: items (list). Returns: IC50 for each item.
1. COc1cc2[nH]nc(-c3cnn(C4CN(C(=O)[C@@H]5COCCN5C)C4)c3)c2nc1-c1cccc2c1CCC2
2. COc1cc2[nH]nc(-c3ccc(N4CCN(C)CC4)nc3)c2nc1-c1cccc(C)c1C

Result ::
1. 40 to 100 nM
2. 40 to 100 nM

Reference source for all entries: patent US12083124B2
